// provenance: ChEMBL document CHEMBL2401651

System: Hepatitis C virus
Assay: Antiviral activity against Hepatitis C virus infected in human […] cells after 72 hrs by luciferase reporter gene assay
Format: functional, organism-based, Hepacivirus hominis
endpoint: pEC50
Here pEC50 is given on a logarithmic scale as minus log10 of the concentration in mol/L.

[[record]]
molecule_smiles = "C=C[C@@H]1C[C@]1(NC(=O)[C@@H]1C[C@@H](c2csc(-c3cccnc3)n2)CN1C(=O)[C@@H](NC(=O)OC1CCCC1)C(C)(C)C)C(=O)NS(=O)(=O)C1CC1"
endpoint = "pEC50"
val = 6.04

[[record]]
molecule_smiles = "C=C[C@@H]1C[C@]1(NC(=O)[C@@H]1C[C@@H](c2csc(-c3c(OC)cccc3OC)n2)CN1C(=O)[C@@H](NC(=O)OC1CCCC1)C(C)(C)C)C(=O)NS(=O)(=O)C1CC1"
endpoint = "pEC50"
val = 5.66

[[record]]
molecule_smiles = "C=C[C@@H]1C[C@]1(NC(=O)[C@@H]1C[C@@H](c2csc(-c3ccc(OC)cc3OC)n2)CN1C(=O)[C@@H](NC(=O)OC1CCCC1)C(C)(C)C)C(=O)NS(=O)(=O)C1CC1"
endpoint = "pEC50"
val = 7.05

[[record]]
molecule_smiles = "C=C[C@@H]1C[C@]1(NC(=O)[C@@H]1C[C@@H](c2csc(-c3ccccc3OCC)n2)CN1C(=O)[C@@H](NC(=O)OC1CCCC1)C(C)(C)C)C(=O)NS(=O)(=O)C1CC1"
endpoint = "pEC50"
val = 7.43


Okay, next one:
Query block: Fill blank: measured pEC50 of the molecule `C=C[C@@H]1C[C@]1(NC(=O)[C@@H]1C[C@@H](c2csc(-c3cc(OC)ccc3OC)n2)CN1C(=O)[C@@H](NC(=O)OC1CCCC1)C(C)(C)C)C(=O)NS(=O)(=O)C1(C)CC1` is ____.
Result block: 8.05
